target: recombinant human TFPI (tissue factor pathway inhibitor) (human, UniProt P10646 29-304); assay: cell-based or functional assay
Measurement Name: FXa assay % of FXa alone, 5 nM Ab, 10 nM TFPI (%)

Binder: clone 3 (antibody, V domains shown) VH: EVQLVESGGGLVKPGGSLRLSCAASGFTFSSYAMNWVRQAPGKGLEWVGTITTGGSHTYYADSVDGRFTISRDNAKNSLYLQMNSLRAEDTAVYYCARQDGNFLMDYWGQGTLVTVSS VL: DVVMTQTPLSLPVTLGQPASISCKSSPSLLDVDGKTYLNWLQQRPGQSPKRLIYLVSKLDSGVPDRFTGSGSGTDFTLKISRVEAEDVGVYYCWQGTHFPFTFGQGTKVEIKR
Val: 45.5

Binder: clone 2 (antibody, V domains shown) VH: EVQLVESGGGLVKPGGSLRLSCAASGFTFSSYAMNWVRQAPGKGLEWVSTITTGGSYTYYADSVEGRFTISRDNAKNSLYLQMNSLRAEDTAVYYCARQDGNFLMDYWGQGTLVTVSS VL: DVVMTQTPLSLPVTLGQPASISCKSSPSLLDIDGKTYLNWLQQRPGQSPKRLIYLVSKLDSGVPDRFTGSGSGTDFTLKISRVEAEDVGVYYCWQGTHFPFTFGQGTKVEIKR
Val: 45.3
